test.name: modulators of LAP4-GFP expression in yeast, primary screen, S. cerevisiae, multiplex flow cytometry (AID 1873)
condition.summary: 3 h, at 10 µM, stronger effect = higher value
Inconclusive results are not listed.
Would you mind labelling by GFP response vs DMSO? At or over 90% is True, under is False.

Determine whether this compound has GFP response vs DMSO no lower than 90%: OC[C@H]1O[C@@H](n2cnc3c(Nc4ccccc4)ncnc32)[C@H](O)[C@@H]1O False

Determine whether this compound has GFP response vs DMSO no lower than 90%: COCCn1c(/C=C/c2ccccc2)nc2ccccc21 True

Determine whether this compound has GFP response vs DMSO no lower than 90%: OC[C@H]1O[C@@H](n2cnc3c(NC4CCCC4)ncnc32)[C@H](O)[C@@H]1O True

Determine whether this compound has GFP response vs DMSO no lower than 90%: COc1ccc(OCC(=O)N2c3ccc(C)cc3C3CN(C)CCC32)cc1 (stereo unspecified) True

Determine whether this compound has GFP response vs DMSO no lower than 90%: COC(=O)c1ccc(CC(=O)c2ccc(O)cc2O)o1 False

Determine whether this compound has GFP response vs DMSO no lower than 90%: CCOc1cc2oc(=O)c3c(c2cc1Cl)CCC3 True

---

test.name: superoxide lowering in aged yeast cells, pilot screen, validation compound set (AID 2706);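 also: yeast exposed to compound for one week at 30 degrees C before staining; 100% = mean of all compound wells on the same plate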
condition.summary: S. cerevisiae aging, superoxide DHE fluorescence; at 10 µM, stronger effect = lower value
Assignment: determine reported superoxide response (% of plate) for the given compounds.
Write it as a number; the unit % goes unstated.

Given item Cc1ccccc1OCC(O)CN1CCN(C)CC1 (configuration not stated) , the value recorded as its superoxide response (% of plate) is 107

Given item Cn1c(=O)c2c(ncn2CC(O)CO)n(C)c1=O (configuration not stated) , the value recorded as its superoxide response (% of plate) is 93.5

Given item CCCC(=O)Nc1ccc(OCC(O)CNC(C)C)c(C(C)=O)c1 (configuration not stated) , the value recorded as its superoxide response (% of plate) is 106

Given item CC(C)=CCCC(C)CN1CCC(N2CCC(C(=O)N3CCCC3)CC2)CC1 (configuration not stated) , the value recorded as its superoxide response (% of plate) is 93.3

Given item CC1(C)c2ccccc2N2CC(=O)N(CC(N)=O)C21C (configuration not stated) , the value recorded as its superoxide response (% of plate) is 108

Given item Nc1nc2c(ncn2COC(CO)CO)c(=O)[nH]1 , the value recorded as its superoxide response (% of plate) is 106

Given item CC(=O)NCCCC(=O)NC(CCC(=O)OCc1ccccc1)C(=O)OCc1ccccc1 (configuration not stated) , the value recorded as its superoxide response (% of plate) is 86.7

Given item O=C(OCCN1CCCC1)C1(c2ccccc2)CCCC1 , the value recorded as its superoxide response (% of plate) is 86.5

Given item CC(=O)[C@@]1(O)CC[C@H]2[C@@H]3CCC4=CC(=O)CC[C@]4(C)[C@H]3CC[C@@]21C , the value recorded as its superoxide response (% of plate) is 104

Given item Cc1ccsc1/C=N\NC(=O)c1ccc2c(c1)OCO2 , the value recorded as its superoxide response (% of plate) is 97

Given item c1ccc2c(CC3=NCCN3)cccc2c1 , the value recorded as its superoxide response (% of plate) is 99

Given item CN(C)CCC(c1ccc(Br)cc1)c1ccccn1 (configuration not stated) , the value recorded as its superoxide response (% of plate) is 106

---

test.name: RPL19A-GFP modulators, yeast TOR pathway, confirmation, cell-based, S. cerevisiae, flow cytometry, cherry picks, mother/daughter gates (AID 2270)
condition.summary: S. cerevisiae RPL19A-GFP strain, 3 h, measured here: mother cell gate, at 10 µM, stronger effect = lower value, 100 = same GFP as DMSO wells
Assignment: determine reported GFP response vs DMSO for the given molecules.
Write it as a number; the unit % goes unstated.

Given item COc1ccc(C2CC(c3c(-c4ccccc4)c4cc(Cl)ccc4[nH]c3=O)=NN2S(C)(=O)=O)cc1OC (centres undefined) , the value recorded as its GFP response vs DMSO is 98.5

Given item Cc1c(NC2=C(Cl)C(=O)N(c3ccccc3)C2=O)c(=O)n(-c2ccccc2)n1C , the value recorded as its GFP response vs DMSO is 95.2

Given item Cc1ccc(/C=C2/NC(=O)N(Cc3ccccc3)C2=O)o1 , the value recorded as its GFP response vs DMSO is 98.8

Given item O=C1c2cccc3cccc(c23)C(=O)N1c1cccnc1 , the value recorded as its GFP response vs DMSO is 101

Given item Cc1c(Cc2ccccc2)c(NCCN(C)C)n2c(nc3ccccc32)c1C#N , the value recorded as its GFP response vs DMSO is 99

Given item CC[n+]1c(/C=C/c2ccc(N(C)C)cc2)ccc2ccccc21 , the value recorded as its GFP response vs DMSO is 96.5

Given item Cc1ccc(S(=O)(=O)NCC23C=CC(O2)C2C(=O)N(c4ccccc4)C(=O)C23)cc1 (centres undefined) , the value recorded as its GFP response vs DMSO is 98.7

Given item Cc1ccc(NC(=S)N(CCCN2CCOCC2)Cc2cccs2)c(C)c1 , the value recorded as its GFP response vs DMSO is 97.9

Given item O=C(c1ccc(Cl)c([N+](=O)[O-])c1)N1CCN(c2ccccc2)CC1 , the value recorded as its GFP response vs DMSO is 96.7

Given item COc1ccccc1NC(=O)c1ccc(N)cc1 , the value recorded as its GFP response vs DMSO is 98.1

Given item O=C(/C=C/c1ccc(-c2ccccc2[N+](=O)[O-])o1)c1ccc(Br)cc1 , the value recorded as its GFP response vs DMSO is 96.7

Given item NC(=O)COc1ccc(C(=O)/C=C2/C(=O)Nc3ccccc32)cc1 , the value recorded as its GFP response vs DMSO is 81

Given item CN(C)c1ccc(N=Cc2nc(-c3ccccc3)oc2OC(=O)c2cccc(Cl)c2)cc1 , the value recorded as its GFP response vs DMSO is 101

Given item Cc1cccc(C)c1NC(=O)c1nc(S(=O)(=O)Cc2ccccc2)ncc1Cl , the value recorded as its GFP response vs DMSO is 95.8

Given item Cc1cc(C)c(OCC(=O)Nc2nc(-c3ccccn3)cs2)c(C)c1 , the value recorded as its GFP response vs DMSO is 98.8

Given item O=C(Nc1cc(Sc2ccccn2)cc([N+](=O)[O-])c1)c1ccc(Cl)cc1 , the value recorded as its GFP response vs DMSO is 99.2

Given item CCOC(=O)Cc1csc(NC(=O)c2sc3nc4c(C)cc(C)cc4cc3c2N)n1 , the value recorded as its GFP response vs DMSO is 97.7

Given item CC(=O)OCC(=O)[C@@]1(O)CC[C@H]2[C@@H]3CCC4=CC(=O)CC[C@]4(C)[C@H]3C(=O)C[C@@]21C , the value recorded as its GFP response vs DMSO is 103

Given item Clc1cccc(Cn2ncc3ccccc32)c1 , the value recorded as its GFP response vs DMSO is 94.9

Given item Cc1ccc(S(=O)(=O)/N=C(\Sc2ccccc2)c2ccccc2)cc1 , the value recorded as its GFP response vs DMSO is 98.6

Given item CCc1ccccc1OCc1nnc(N)s1 , the value recorded as its GFP response vs DMSO is 102

Given item Cc1cc(O)c(C(=O)/C=C/c2ccccc2O)c(=O)o1 , the value recorded as its GFP response vs DMSO is 101

Given item CC(C)(C)NC(=O)CN(C(=O)CCC(=O)Nc1nccs1)c1ccc(F)cc1 , the value recorded as its GFP response vs DMSO is 101

Given item Cc1cc(C)c(S(C)(=O)=O)c(S(=O)(=O)c2ccc(Cl)cc2)n1 , the value recorded as its GFP response vs DMSO is 100

---

Assignment: determine reported GFP response, % of DMSO for the given compounds.
test.name: AGP1-GFP expression modulators, hit retest, confirmation, cell-based, flow cytometry, S. cerevisiae, cherry picks (AID 2273);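 also: median GFP channel fluorescence over the whole cell population gate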
condition.summary: S. cerevisiae AGP1-GFP strain, 3 h, at 10 µM
Write it as a number; the unit % goes unstated.

Given item O=C(Oc1oc(-c2ccco2)nc1C=Nc1ccccc1)c1ccco1 , the value recorded as its GFP response, % of DMSO is 91.2

Given item Cc1ccn2c(NC3CCCCC3)c(-c3cccc(-c4cccc(Cl)c4)c3)nc2c1 , the value recorded as its GFP response, % of DMSO is 92.5

Given item CCCc1nnc(NC(=O)c2nc(S(=O)(=O)Cc3cccc(C)c3)ncc2Cl)s1 , the value recorded as its GFP response, % of DMSO is 101

Given item COc1ccc(C(=O)NC(=S)NNC(=O)CCc2ccccc2)cc1 , the value recorded as its GFP response, % of DMSO is 87.7

Given item COc1ccc(-c2nn(-c3ccccc3)cc2C(=O)NC(=S)NNC(=O)c2ccncc2)cc1 , the value recorded as its GFP response, % of DMSO is 101

Given item COc1ccc(OC(=O)c2cc(S(=O)(=O)N3CCCC3)ccc2Cl)cc1 , the value recorded as its GFP response, % of DMSO is 94.3

Given item O=C1CC(SCCO)C(=O)N1c1ccc(Oc2ccccc2)cc1 (stereo not drawn) , the value recorded as its GFP response, % of DMSO is 103

Given item CC(C)(C)NC(=O)CN(C(=O)CCC(=O)Nc1nccs1)c1ccc(F)cc1 , the value recorded as its GFP response, % of DMSO is 101

Given item Cc1ccc(S(=O)(=O)CC#CCOC(=O)c2ccc([N+](=O)[O-])cc2)cc1 , the value recorded as its GFP response, % of DMSO is 111

Given item Oc1ccc(N=Nc2ccccc2)o1 , the value recorded as its GFP response, % of DMSO is 111

Given item O=C(/C=C/c1ccnc2ccccc12)c1cccs1 , the value recorded as its GFP response, % of DMSO is 112

Given item N/C(Cc1ccc(Cl)cc1Cl)=N\OC(=O)c1ccccc1 , the value recorded as its GFP response, % of DMSO is 105

Given item O=C(Nc1ccc(NC(=O)c2cc3ccccc3o2)cc1)c1ccco1 , the value recorded as its GFP response, % of DMSO is 106

Given item Cc1ccc(NC(=O)c2nc(S(=O)(=O)Cc3ccccc3C)ncc2Cl)cc1C , the value recorded as its GFP response, % of DMSO is 107

Given item Cc1ccc(NC(=S)N/N=C/c2c(C)[nH]c3ccccc23)cc1 , the value recorded as its GFP response, % of DMSO is 90.1

Given item COc1ccc(C(=O)/C=C2/C(=O)Nc3ccccc32)c(OC)c1 , the value recorded as its GFP response, % of DMSO is 99.2

Given item Cc1ccc(C(c2cc(Cl)c3cccnc3c2O)N2CCN(C)CC2)cc1 (stereo not drawn) , the value recorded as its GFP response, % of DMSO is 95.9

Given item CCCc1cc(=O)n(-c2nc3ccccc3s2)[nH]1 , the value recorded as its GFP response, % of DMSO is 104

Given item COc1ccc(-c2noc(CCC(=O)Nc3cccc(C)c3)n2)cc1 , the value recorded as its GFP response, % of DMSO is 96.9

Given item CS(=O)(=O)c1nc(-c2cccs2)cc(C(F)(F)F)n1 , the value recorded as its GFP response, % of DMSO is 118

Given item COC(CNC(=O)c1ccc2c3c(onc13)-c1ccccc1C2=O)OC , the value recorded as its GFP response, % of DMSO is 86

Given item O=C(N/N=C/c1ccccc1Cl)c1cccc(F)c1 , the value recorded as its GFP response, % of DMSO is 98.8

Given item Cc1ccc(/C=C/C(=O)c2ccccc2)cc1 , the value recorded as its GFP response, % of DMSO is 102
